read-out: Monocyte Chemoattractant Protein-1 (MCP1), CCL2 (gene 6347); experiment: BSK_SAg_MCP1: BioMAP Diversity Plus: SAg Assay for Monocyte Chemoattractant Protein-1 (MCP1) Biomarker Activity (AID 2283090); settings: primary human HUVEC with PBMC; actives raise or lower the signal
Activity calls are given as the source filed them. The calls were made as follows: active = hit-call score of the fitted dose curve at least 0.9, where 1 is the maximum; inactive = score below 0.9.
Outcome codes: active, inactive

{"columns": ["COMPOUND", "LABEL"],
 "data": [
  ["CC(C)(c1cc(Br)c(OCCO)c(Br)c1)c1cc(Br)c(OCCO)c(Br)c1", "inactive"],
  ["C=CC=CC=CCCCCC", "inactive"],
  ["O=C(Cl)c1cc(C(=O)Cl)cc(C(=O)Cl)c1", "active"],
  ["O=Nc1ccc(O)cc1", "inactive"],
  ["O=C(c1ccc(O)cc1)c1ccc(O)cc1O", "inactive"],
  ["CO[Si](OC)(OC)c1ccccc1", "inactive"],
  ["C=CCOCC(O)CCl (configuration not stated)", "inactive"],
  ["N#[N+]c1ccc2c(S(=O)(=O)[O-])cccc2c1O", "inactive"],
  ["S=C(NC1CCCCC1)NC1CCCCC1", "inactive"],
  ["CC(C)C(=O)C(C)C", "inactive"],
  ["CCCCC/C=C\\C/C=C\\CCCCCCCC(=O)OC", "inactive"],
  ["CCCCNc1ccc(NCCCC)c2c1C(=O)c1ccccc1C2=O", "inactive"],
  ["CN1C(=O)N(C)C(O)C1O (configuration not stated)", "inactive"],
  ["C=CC(=O)OCC(Br)CBr (configuration not stated)", "active"],
  ["C/C=C\\C/C=C/CCCCCCCCOC(C)=O", "inactive"],
  ["C=C[Si](OC(C)=O)(OC(C)=O)OC(C)=O", "inactive"],
  ["CCCCC(CC)COC(=O)c1ccccc1O (configuration not stated)", "inactive"],
  ["CCOc1nc(F)cc2nc(S(=O)(=O)Nc3c(Cl)cccc3C(=O)OC)nn12", "inactive"],
  ["CCO[Si](C)(OCC)OCC", "inactive"],
  ["C=CCOc1c(Br)cc(Br)cc1Br", "inactive"],
  ["c1ccc2c(c1)ccc1ncccc12", "inactive"],
  ["CCO[Si](CCCN=C=O)(OCC)OCC", "inactive"]
]}

====

experiment: ATG_XTT_Cytotoxicity: Cytotoxicity Assessment in the Attagene TRANS-FACTORIAL HepG2 Assay (AID 2283584)
Inconclusive results are not listed. Calls of active or inactive are those of the source. Rule for the calls: active = hit-call score of the fitted dose curve at least 0.9, where 1 is the maximum; inconclusive = response in the unintended direction; inactive = score below 0.9.
Outcome codes: Yes for active, No for inactive

{"columns": ["COMPOUND", "LABEL"],
 "data": [
  ["COc1ccc2nc(N)sc2c1", "No"],
  ["CCCCCCCCC(=O)OCC", "No"],
  ["O=C(Cl)c1cc(C(=O)Cl)cc(C(=O)Cl)c1", "No"],
  ["CCCCCCCCCCCCCCCC[n+]1ccccc1", "Yes"],
  ["COc1cc(C)ccc1C(C)C", "No"],
  ["O=C(O)c1ccccc1Nc1cccc(C(F)(F)F)c1", "No"],
  ["O=C(O)C(c1ccc(Cl)cc1)c1ccc(Cl)cc1", "No"],
  ["CC1(C)[C@H]2CC[C@]1(C)C(=O)C2", "No"],
  ["c1c[nH]cn1", "No"],
  ["Cc1oncc1C(=O)Nc1ccc(C(F)(F)F)cc1", "No"],
  ["C=CC(C)(CCC=C(C)C)OC(=O)CC(C)C (centres undefined)", "No"],
  ["CCOC(=O)N1CCC(=C2c3ccc(Cl)cc3CCc3cccnc32)CC1", "Yes"],
  ["CCCCCCCCCCC=CC#N", "No"],
  ["Nc1ccc(Oc2ccc(N)c(N)c2)cc1", "No"]
]}

====

molecular target: CCAAT/enhancer-binding protein beta (Homo sapiens) (UniProt P17676); experiment: ATG_C_EBP_CIS: Attagene CIS-FACTORIAL HepG2 Assay for human CCAAT/Enhancer Binding Protein (C/EBP) beta (AID 2282927); settings: HepG2 Attagene cis-factorial transcription factor reporter; actives raise or lower the signal
Sequence (P17676 whole entry, looked up): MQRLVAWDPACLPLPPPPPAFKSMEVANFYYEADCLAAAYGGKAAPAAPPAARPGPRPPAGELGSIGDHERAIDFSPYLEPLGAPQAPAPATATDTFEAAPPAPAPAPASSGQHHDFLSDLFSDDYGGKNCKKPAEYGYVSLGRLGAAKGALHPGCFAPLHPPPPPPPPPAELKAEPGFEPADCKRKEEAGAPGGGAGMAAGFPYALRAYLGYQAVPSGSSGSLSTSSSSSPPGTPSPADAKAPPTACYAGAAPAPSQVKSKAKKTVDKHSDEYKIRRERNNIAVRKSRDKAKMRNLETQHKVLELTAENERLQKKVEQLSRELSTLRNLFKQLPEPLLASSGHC
The source made the active and inactive calls. The calls were made as follows: active = hit-call score of the fitted dose curve at least 0.9, where 1 is the maximum; inactive = score below 0.9.
Outcome codes: yes (1) = active, no (0) = inactive

{"columns": ["COMPOUND", "LABEL"],
 "data": [
  ["CCCC(C)CCC(C)=O (stereo not given)", "no (0)"],
  ["O=C1OC(=O)c2cc(Oc3ccc4c(c3)C(=O)OC4=O)ccc21", "no (0)"],
  ["CC1(C)[C@H]2CC[C@]1(C)C(=O)C2", "no (0)"],
  ["CC(CC=O)CCCC(C)(C)O (stereo not given)", "no (0)"],
  ["CCCCCCCC(C)=O", "no (0)"],
  ["C(=CC=Nc1ccccc1)C=CNc1ccccc1", "no (0)"],
  ["CCC(C)OC(=O)c1ccc(O)cc1 (stereo not given)", "no (0)"],
  ["N#[N+]c1ccc2c(S(=O)(=O)[O-])cccc2c1O", "no (0)"],
  ["CCOC(=O)Cc1cccc2ccccc12", "no (0)"],
  ["Cc1oncc1C(=O)Nc1ccc(C(F)(F)F)cc1", "no (0)"],
  ["C=C1[C@H]2CC[C@@H]3[C@H]2C(C)(C)CCC[C@]13C", "no (0)"],
  ["O=CN1CCCCC1", "no (0)"],
  ["C=CC(=O)OCC(Br)CBr (stereo not given)", "yes (1)"],
  ["CC(C)(C)c1n[nH]c(=O)n(N)c1=O", "no (0)"],
  ["OCCNCc1ccccc1", "no (0)"]
]}

====

read-out: E-selectin (Homo sapiens) (UniProt P16581); assay: BSK_3C_Eselectin: BioMAP Diversity Plus: 3C Assay for Eselectin Biomarker Activity (AID 2283015); conditions: primary human endothelial cells (HUVEC); actives raise or lower the signal;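 as to Outcome: cell surface E-selectin protein quantified by ELISA 24 h after dosing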
Sequence (P16581 whole entry, looked up): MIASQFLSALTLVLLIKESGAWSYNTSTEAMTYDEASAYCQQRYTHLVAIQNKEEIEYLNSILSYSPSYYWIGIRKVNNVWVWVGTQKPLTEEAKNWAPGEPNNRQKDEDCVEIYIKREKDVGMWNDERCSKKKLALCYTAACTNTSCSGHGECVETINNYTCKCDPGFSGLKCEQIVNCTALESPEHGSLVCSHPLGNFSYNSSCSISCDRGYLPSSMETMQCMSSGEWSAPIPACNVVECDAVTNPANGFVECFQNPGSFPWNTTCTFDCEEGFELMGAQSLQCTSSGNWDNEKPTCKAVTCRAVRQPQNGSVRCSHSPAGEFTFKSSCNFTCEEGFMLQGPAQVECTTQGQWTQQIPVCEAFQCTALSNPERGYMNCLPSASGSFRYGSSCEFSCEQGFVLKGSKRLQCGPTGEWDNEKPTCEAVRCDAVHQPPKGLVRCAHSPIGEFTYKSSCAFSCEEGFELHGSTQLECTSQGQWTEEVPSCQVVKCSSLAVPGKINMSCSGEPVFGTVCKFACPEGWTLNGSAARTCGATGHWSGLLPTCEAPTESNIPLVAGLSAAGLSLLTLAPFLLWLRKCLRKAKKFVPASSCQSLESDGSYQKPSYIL
Activity calls are given as the source filed them. The calls were made as follows: active = hit-call score of the fitted dose curve at least 0.9, where 1 is the maximum; inactive = score below 0.9.
Outcome codes: label 1 = active, label 0 = inactive

{"columns": ["COMPOUND", "LABEL"],
 "data": [
  ["CCOc1nc(F)cc2nc(S(=O)(=O)Nc3c(Cl)cccc3C(=O)OC)nn12", "label 0"],
  ["CCCCNc1ccc(NCCCC)c2c1C(=O)c1ccccc1C2=O", "label 0"],
  ["c1ccc2c(c1)ccc1cc3c(ccc4ccccc43)cc12", "label 0"],
  ["O=C(Cl)c1cc(C(=O)Cl)cc(C(=O)Cl)c1", "label 1"],
  ["CCO[Si](C)(OCC)OCC", "label 0"],
  ["S=C(NC1CCCCC1)NC1CCCCC1", "label 0"],
  ["CC(C)C(=O)C(C)C", "label 0"],
  ["O=Nc1ccc(O)cc1", "label 0"],
  ["CCCCC(CC)COCC1CO1 (centres undefined)", "label 0"],
  ["C=CCOc1c(Br)cc(Br)cc1Br", "label 1"],
  ["O=c1c2ccccc2oc2ccccc12", "label 0"],
  ["CCCCC/C=C\\C/C=C\\CCCCCCCC(=O)OC", "label 1"],
  ["COc1ccc2nc(N)sc2c1", "label 0"],
  ["N#[N+]c1ccc2c(S(=O)(=O)[O-])cccc2c1O", "label 0"]
]}

====

read-out: Pselectin, SELP (gene 6403); test: BSK_4H_Pselectin: BioMAP Diversity Plus: 4H Assay for Pselectin Biomarker Activity (AID 2283026); conditions: primary human endothelial cells (HUVEC); actives raise or lower the signal
Activity calls are given as the source filed them. How the source made its calls: active means hit-call score of the fitted dose curve at least 0.9, where 1 is the maximum; inactive means score below 0.9.
Outcome codes: 1.0 = active, 0.0 = inactive

{"columns": ["COMPOUND", "LABEL"],
 "data": [
  ["CCOc1nc(F)cc2nc(S(=O)(=O)Nc3c(Cl)cccc3C(=O)OC)nn12", 0.0],
  ["O=C(c1ccc(O)cc1)c1ccc(O)cc1O", 0.0],
  ["COc1ccc2nc(N)sc2c1", 0.0],
  ["CCCCC/C=C\\C/C=C\\CCCCCCCC(=O)OC", 1.0],
  ["CC1OC1C1CCC2(C)OC2C1 (centres undefined)", 0.0],
  ["c1ccc2c(c1)ccc1cc3c(ccc4ccccc43)cc12", 0.0],
  ["C=CC=CC=CCCCCC", 0.0],
  ["CCCCC(CC)COCC1CO1 (centres undefined)", 0.0],
  ["CC(C)(c1cc(Br)c(OCCO)c(Br)c1)c1cc(Br)c(OCCO)c(Br)c1", 1.0],
  ["O=C1CCCN1CCO", 0.0],
  ["CN1C(=O)N(C)C(O)C1O (centres undefined)", 0.0],
  ["O=C(Cl)c1cc(C(=O)Cl)cc(C(=O)Cl)c1", 1.0],
  ["CCCCCCCCc1ccc(Nc2ccc(CCCCCCCC)cc2)cc1", 0.0],
  ["C=C[Si](OC(C)=O)(OC(C)=O)OC(C)=O", 0.0]
]}
